valueType: pIC50
# log scale: pIC50 equals minus log10 of the concentration in mol/L

Task: Recall the reported pIC50 of CN1CCC(Nc2ccc(-c3n[nH]c4c3CN(S(=O)(=O)c3c(Cl)cccc3Cl)CC4)cc2)CC1 on Hepatocyte growth factor receptor (Homo sapiens, UniProt P08581) and write it down.
Sequence (P08581 whole entry): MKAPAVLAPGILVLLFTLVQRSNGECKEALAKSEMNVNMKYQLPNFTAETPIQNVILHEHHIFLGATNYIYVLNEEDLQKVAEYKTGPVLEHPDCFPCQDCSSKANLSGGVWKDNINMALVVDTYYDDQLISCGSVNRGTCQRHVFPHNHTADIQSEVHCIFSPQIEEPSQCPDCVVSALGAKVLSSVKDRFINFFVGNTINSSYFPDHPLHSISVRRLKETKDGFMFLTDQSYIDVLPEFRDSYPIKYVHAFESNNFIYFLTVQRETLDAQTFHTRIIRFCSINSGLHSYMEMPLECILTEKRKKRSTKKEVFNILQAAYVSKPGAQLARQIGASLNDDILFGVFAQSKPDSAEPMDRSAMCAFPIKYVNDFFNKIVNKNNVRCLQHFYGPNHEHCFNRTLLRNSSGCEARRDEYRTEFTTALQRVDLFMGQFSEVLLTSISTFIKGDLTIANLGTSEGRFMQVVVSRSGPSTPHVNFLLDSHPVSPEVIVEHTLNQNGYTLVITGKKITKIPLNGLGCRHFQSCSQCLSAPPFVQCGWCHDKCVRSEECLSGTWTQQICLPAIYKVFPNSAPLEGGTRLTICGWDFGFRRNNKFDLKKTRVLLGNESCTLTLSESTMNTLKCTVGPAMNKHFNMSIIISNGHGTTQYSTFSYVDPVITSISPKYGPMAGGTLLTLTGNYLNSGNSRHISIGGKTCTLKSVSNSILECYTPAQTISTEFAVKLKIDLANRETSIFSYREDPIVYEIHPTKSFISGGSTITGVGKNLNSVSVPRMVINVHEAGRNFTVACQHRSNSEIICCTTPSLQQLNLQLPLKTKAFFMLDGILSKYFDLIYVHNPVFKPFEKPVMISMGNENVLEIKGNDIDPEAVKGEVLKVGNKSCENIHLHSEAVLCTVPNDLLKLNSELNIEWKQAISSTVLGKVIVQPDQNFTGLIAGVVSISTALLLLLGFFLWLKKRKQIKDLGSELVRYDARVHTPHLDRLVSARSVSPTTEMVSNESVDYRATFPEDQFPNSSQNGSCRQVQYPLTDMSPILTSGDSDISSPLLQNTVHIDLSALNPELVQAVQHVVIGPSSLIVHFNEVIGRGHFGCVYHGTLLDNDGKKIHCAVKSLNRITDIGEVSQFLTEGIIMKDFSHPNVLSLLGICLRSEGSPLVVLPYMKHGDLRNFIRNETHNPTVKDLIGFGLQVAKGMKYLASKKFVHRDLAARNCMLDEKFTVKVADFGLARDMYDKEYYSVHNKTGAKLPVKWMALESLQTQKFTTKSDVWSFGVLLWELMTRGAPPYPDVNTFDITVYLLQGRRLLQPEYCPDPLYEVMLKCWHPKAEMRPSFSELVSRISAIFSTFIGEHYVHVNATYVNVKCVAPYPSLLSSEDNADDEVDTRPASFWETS
Result: 7.17

All figures here come from ChEMBL document CHEMBL4130362.
